# assay_target: T1, human CD47ECD mouse Fc protein (human, UniProt Q08722 19-139, limits assumed)
# T1 construct: extracellular domain; also called HuCD47ECD muFc; bivalent CD47ECD muFc protein; not shown: mouse Fc
# T1 sequence (Q08722 19-139 limits assumed): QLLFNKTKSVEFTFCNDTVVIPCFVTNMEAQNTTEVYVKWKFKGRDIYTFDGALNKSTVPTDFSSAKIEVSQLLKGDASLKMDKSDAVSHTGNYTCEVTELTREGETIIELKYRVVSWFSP
# assay_comment: SPR (Biacore 3000); antibody captured on anti-human Fc chip, bivalent HuCD47ECD muFc injected; column Affinity (nM)
pKd: −log10 of the molar value.
pKd values, listed per item
result_type: pKd

* D8S1 mouse/human chimeric anti-human CD47 antibody (antibody, V domains shown, also called chimeric D8S1) VH: EVQLQQSVAELVRPGASVKLSCTVSGFNIKNTYIYWVKQRPEQGLEWIGRIDPANGNTKDAPKFQGKATMTADTSSNTAYLQLSSLTSEDTAIYYCARGYGSGFAYWGQGTLVTVSA VL: DIQMTQTTSSLSASLGDRVTISCRASQDISNHLNWYQQKPDGIVKLLIYYTSRLHSGVPSRFSGSGSGTDYSLTISNLEQEDIATYFCQQGSTLPFTFGSGTKLEIK | 9.53
* D41S2 mouse/human chimeric anti-human CD47 antibody (antibody, V domains shown, also called chimeric D41S2) VH: EVQLQQSVAELVRPGASVKLSCTPSGFNIKNTYIYWVRQRPEQGLEWIGRIDPANGNTKDAPKFQGKATMTADTSSNTAYLQLSSLTSEDTAIYYCARGYGSGFAYWGQGTLVTVSA VL: DIQMTQTTSSLSASLGDRVTISCRASQDISNHLNWYQQKPDGTVKLLIYYTSRLHSGVPSRFSGSGSGTDYSLTISNLEQEDIATYFCQQGSTLPFTFGSGTKLEIK | 9.64
* D36S4 mouse/human chimeric anti-human CD47 antibody (antibody, V domains shown, also called chimeric D36S4 antibody; D36S4 H/L) VH: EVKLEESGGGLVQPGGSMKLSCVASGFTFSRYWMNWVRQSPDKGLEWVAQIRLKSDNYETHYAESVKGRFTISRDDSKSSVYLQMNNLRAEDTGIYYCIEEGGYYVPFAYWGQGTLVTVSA VL: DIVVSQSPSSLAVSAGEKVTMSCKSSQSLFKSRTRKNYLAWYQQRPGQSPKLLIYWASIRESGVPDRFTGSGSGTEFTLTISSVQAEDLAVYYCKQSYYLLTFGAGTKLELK | 10.71
* D125S3 mouse/human chimeric anti-human CD47 antibody (antibody, V domains shown, also called chimeric D125S3) VH: EVQLVESGGDLVKPGGSLNLSCAASGFTFSDYGMSWVRQTPDMRLEWVATISKYGTYTSYPDSVKGRFTISRSNAKNTLYLQMSSLKSADTALYYCARRFFGNYNYWYFDVWGAGTTVTVSS VL: DIVLTQSPASLAVSLGQRATFSCRASESVDEFGISYIHWYKKSPGQPPKLLIYRASTLESGISARFSGSGSGTDFTLTINPVETDDVATYYCQQSNQDPLTFGAGTKLELK | 9.46
* D28S1 mouse/human chimeric anti-human CD47 antibody (antibody, V domains shown, also called chimeric D28S1; D28S1VH/VL) VH: EVQLVESGGDLVKPGGSLKLSCAASGFTFTSYGMSWVRQTPDKRLEWVATINTGGSYTYYPDSVKGRFTISRDNAKNTLYLQMSSLKSEDTAMYYCARHTIKSLMDYWGQGTSVTVSS VL: ETTVTQSPASLSMAIGEKVTIRCITSTDIDDDMNWYQQKPGEPPKLLISEGNTLRPGVPSRFSSSGYGTDFVFIIENMFSEDVADYYCLQSDNLPYTFGSGTKLEIK | 8.86
* D96S1 mouse/human chimeric anti-human CD47 antibody (antibody, V domains shown, also called chimeric D96S1) VH: EVQLQQSGAELVKPGASVKLSCTASGFNIKDTYIHWVKQRPEQGLEWIGRIDPANGNIKSDPKFQGKATVTADTSSNTAYLQLSSLTSEDTAVYYCARSYGSSFASWGQGTLVTVSP VL: DIQMTQTTSSLSASLGDRVTISCRASQDISNHLNWYQQKPDGAVKLLIYYTSRLHSGVPSRFSGSGSGTDYSLTISNLEQEDIATYFCQQGSTFPYTFGGGTKLEIK | 9.25
* AB6.12, a humanized version of anti-CD47 antibody 2A1 from Celgene (antibody, from another filing, V domains shown) VH: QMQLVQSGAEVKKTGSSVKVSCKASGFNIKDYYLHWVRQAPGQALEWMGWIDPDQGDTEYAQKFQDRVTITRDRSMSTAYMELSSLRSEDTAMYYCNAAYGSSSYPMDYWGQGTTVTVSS VL: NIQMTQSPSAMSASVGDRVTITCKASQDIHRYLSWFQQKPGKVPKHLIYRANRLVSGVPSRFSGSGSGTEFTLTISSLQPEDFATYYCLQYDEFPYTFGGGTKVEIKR | 10.32
